target-desc: Estrogen receptor (Homo sapiens) + Estrogen receptor beta (Homo sapiens) (UniProt P03372+Q92731)
Sequence (P03372 whole entry, looked up, the tested form may be a part): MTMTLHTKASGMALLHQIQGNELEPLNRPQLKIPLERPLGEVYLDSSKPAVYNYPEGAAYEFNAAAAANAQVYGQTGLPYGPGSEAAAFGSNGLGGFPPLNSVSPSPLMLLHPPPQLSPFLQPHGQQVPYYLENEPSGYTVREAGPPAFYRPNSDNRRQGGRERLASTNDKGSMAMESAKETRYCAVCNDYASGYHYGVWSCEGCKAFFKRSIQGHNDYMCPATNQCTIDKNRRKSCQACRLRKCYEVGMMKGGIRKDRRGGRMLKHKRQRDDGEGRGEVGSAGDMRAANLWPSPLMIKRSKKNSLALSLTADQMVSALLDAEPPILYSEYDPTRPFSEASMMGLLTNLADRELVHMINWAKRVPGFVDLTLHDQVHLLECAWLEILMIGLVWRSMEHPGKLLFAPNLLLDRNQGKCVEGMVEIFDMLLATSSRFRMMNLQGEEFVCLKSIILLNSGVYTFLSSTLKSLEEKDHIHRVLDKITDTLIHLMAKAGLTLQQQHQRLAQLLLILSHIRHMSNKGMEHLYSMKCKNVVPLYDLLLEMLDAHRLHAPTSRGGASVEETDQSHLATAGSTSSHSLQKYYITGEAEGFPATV
Sequence (Q92731 whole entry, looked up, the tested form may be a part): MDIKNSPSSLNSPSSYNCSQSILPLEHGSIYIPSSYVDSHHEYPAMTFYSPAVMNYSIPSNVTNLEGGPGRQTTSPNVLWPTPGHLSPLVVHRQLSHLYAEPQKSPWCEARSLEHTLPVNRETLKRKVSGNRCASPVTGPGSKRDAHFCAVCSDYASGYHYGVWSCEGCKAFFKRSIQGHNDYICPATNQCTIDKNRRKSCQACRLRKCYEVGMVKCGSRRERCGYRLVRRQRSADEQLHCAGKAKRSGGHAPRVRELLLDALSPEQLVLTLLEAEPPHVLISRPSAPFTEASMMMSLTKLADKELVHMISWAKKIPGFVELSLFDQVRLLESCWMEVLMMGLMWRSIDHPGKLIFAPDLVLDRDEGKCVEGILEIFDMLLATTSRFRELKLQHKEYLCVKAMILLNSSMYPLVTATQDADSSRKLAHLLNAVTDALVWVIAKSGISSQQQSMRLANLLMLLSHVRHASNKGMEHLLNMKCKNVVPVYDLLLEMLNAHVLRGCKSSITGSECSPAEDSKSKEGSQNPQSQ
assay-info: OT_ER_ERaERb_1440: Odyssey Thera (OT) 24-hour HEK293T Protein-Complementation Assay for Estrogen Receptor-alpha/-beta Homodimer (AID 2283356);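 further: heteromer of ER alpha and ER beta binding domains; hits raise reporter fluorescence and both agonists and antagonists give an increase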
Results filed as inconclusive are left out. Active and inactive are the calls of the source. How the source made its calls: active means hit-call score of the fitted dose curve at least 0.9, where 1 is the maximum; inconclusive means response in the unintended direction; inactive means score below 0.9.
Response enum: active, inactive

INSERT INTO measurements (molecule, class_label) VALUES
  ('O=Cc1ccccc1C=O', 'inactive'),
  ('NC1CCCCC1', 'inactive'),
  ('NC(=Nc1ccccc1)Nc1ccccc1', 'inactive'),
  ('CCCCc1nc2cccnc2n1Cc1ccc(-c2ccccc2-c2nnn[nH]2)cc1', 'inactive');

Please turn your attention to the following entry.
Lab log entry: Cc1c(C)c2c(c(C)c1O)CCC(C)(COc1ccc(CC3SC(=O)NC3=O)cc1)O2 (configuration not stated) — outcome as called in the assay?
inactive
